Biological target: T1, recombinant human IL-27 (human, UniProt Q14213 21-229; Q8NEV9 29-243)
T1 construct: Bought from R&D Systems (Cat. 2526-IL); also called hIL-27; rhIL-27
T1 sequence 1: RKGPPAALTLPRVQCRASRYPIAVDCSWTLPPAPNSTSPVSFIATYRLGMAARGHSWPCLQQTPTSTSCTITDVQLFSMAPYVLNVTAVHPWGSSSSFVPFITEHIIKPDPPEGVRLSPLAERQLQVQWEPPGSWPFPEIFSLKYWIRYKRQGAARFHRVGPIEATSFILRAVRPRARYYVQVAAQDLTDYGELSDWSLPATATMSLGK
T1 sequence 2: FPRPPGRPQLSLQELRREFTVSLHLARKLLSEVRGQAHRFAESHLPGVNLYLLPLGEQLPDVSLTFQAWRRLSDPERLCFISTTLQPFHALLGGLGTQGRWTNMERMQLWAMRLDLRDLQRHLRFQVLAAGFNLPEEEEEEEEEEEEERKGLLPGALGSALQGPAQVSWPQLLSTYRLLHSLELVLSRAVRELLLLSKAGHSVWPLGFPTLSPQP
Assay: SPR, hIL-27 on CM5 chip, bivalent analyte model
Quantity Kind: ka2

Count: 2. Required value per item: ka2.
1. Ab7.12 (antibody, human IgG1, kappa, V domains shown, human IgG1/kappa) VH: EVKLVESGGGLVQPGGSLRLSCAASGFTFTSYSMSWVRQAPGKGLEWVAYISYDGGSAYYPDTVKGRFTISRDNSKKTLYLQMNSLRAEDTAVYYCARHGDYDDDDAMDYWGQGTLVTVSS VL: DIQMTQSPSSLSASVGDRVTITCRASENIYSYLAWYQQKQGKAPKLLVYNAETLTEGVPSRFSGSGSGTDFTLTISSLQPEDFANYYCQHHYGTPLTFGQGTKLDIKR
2. Ab7.3 (antibody, human IgG1, kappa, V domains shown, human IgG1/kappa) VH: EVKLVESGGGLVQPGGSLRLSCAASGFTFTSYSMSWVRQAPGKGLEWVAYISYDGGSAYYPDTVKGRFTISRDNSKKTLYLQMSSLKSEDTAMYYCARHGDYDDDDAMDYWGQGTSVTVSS VL: DIQMTQSPASLSASVGETVTITCRASENIYSYLAWYQQKQGKSPQLLVYNAETLTEGVPSRFSGSGSGTQFSLKINSLQPEDFGNYYCQHHYGTPLTFGAGTKLDLKR

### Response
1: 0.11 1/RUs; 2: 0.029 1/RUs

Lab book: ka2 of Ab7.22 (antibody, human IgG1, kappa, V domains shown, human IgG1/kappa) VH: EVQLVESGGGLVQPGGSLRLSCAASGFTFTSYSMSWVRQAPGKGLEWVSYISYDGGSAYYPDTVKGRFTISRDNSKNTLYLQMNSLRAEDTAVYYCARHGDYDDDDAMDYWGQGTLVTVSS VL: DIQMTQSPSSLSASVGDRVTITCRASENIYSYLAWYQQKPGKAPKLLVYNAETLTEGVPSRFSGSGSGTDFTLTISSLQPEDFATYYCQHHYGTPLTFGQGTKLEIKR noted as 0.49 1/RUs
